Measured values drawn from patent US7034056B2 for this set.

Target: hMCHR (MCH receptor) (Homo sapiens)
Construct: (or internally produced); host or cells: CHO (Chinese hamster ovary) cells, membrane preparation
Sequence (Q99705 whole entry): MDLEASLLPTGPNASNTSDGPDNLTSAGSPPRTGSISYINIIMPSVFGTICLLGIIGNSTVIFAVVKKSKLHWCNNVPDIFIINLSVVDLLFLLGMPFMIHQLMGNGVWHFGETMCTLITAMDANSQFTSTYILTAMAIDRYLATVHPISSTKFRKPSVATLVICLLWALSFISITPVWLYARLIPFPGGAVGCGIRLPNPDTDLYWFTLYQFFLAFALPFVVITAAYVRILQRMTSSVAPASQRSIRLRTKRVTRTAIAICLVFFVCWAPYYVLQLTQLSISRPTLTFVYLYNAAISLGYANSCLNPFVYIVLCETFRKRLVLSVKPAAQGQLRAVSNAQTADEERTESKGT
Experiment: MCH Assay PCOP Protocol ([125I]-MCH SPA binding to hMCHR-CHO membranes);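 further: A 0.4–50 nM B 51–500 nM C 501–2500 nM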
Details: [125I]-MCH binding to hMCHR-CHO membranes; class symbols for ranges of Ki; read-out: Activity (Ki range)
pKi: −log10 of the molar value.
metric: pKi

molecule="CN(C)CCCNCCC(CNC(=O)Nc1cc(Cl)cc(Cl)c1)c1ccc(-c2ccccc2)cc1 (stereo not drawn)" tested_target="hMCHR (MCH receptor) (Homo sapiens)" result="6.30 to 7.29"
molecule="CN1CCCC1CCNCCC(CNC(=O)Nc1cc(Cl)cc(Cl)c1)c1ccc(Cl)c(Cl)c1 (stereo not drawn)" tested_target="hMCHR (MCH receptor) (Homo sapiens)" result="5.60 to 6.30"
molecule="CCN(CC)CCC(CNC(=O)c1cc(C(F)(F)F)cc(C(F)(F)F)c1)c1ccc(Cl)c(Cl)c1 (stereo not drawn)" tested_target="hMCHR (MCH receptor) (Homo sapiens)" result="5.60 to 6.30"
molecule="O=C(NCC(CCNC1CCCC1)c1ccc(-c2cc(C(F)(F)F)cc(C(F)(F)F)c2)cc1)Nc1cc(Cl)cc(Cl)c1 (stereo not drawn)" tested_target="hMCHR (MCH receptor) (Homo sapiens)" result="5.60 to 6.30"
molecule="COc1cc(NC(=O)NCC(CCN2CCCCC2)c2ccc(C)cc2)cc(OC)c1 (stereo not drawn)" tested_target="hMCHR (MCH receptor) (Homo sapiens)" result="5.60 to 6.30"

// lookup pKi for CN(C)CCCNCCC(CNC(=O)Nc1ccc(Cl)c(Cl)c1)c1ccc(Cl)c(Cl)c1 (stereo not drawn)
5.60 to 6.30

Ok, now O=C(NCC(CCNCCc1c[nH]c2ccccc12)c1cccc(F)c1)Nc1cc(C(F)(F)F)cc(C(F)(F)F)c1 (stereo not drawn)
5.60 to 6.30

Ok, now COc1ccc(-c2ccc(C(CCNC3CCCC3)CNC(=O)Nc3cc(Cl)cc(Cl)c3)cc2)cc1 (stereo not drawn)
6.30 to 7.29
